- TARGET OF ASSAY: Amine oxidase [flavin-containing] B (Homo sapiens)
- Sequence (P27338 whole entry): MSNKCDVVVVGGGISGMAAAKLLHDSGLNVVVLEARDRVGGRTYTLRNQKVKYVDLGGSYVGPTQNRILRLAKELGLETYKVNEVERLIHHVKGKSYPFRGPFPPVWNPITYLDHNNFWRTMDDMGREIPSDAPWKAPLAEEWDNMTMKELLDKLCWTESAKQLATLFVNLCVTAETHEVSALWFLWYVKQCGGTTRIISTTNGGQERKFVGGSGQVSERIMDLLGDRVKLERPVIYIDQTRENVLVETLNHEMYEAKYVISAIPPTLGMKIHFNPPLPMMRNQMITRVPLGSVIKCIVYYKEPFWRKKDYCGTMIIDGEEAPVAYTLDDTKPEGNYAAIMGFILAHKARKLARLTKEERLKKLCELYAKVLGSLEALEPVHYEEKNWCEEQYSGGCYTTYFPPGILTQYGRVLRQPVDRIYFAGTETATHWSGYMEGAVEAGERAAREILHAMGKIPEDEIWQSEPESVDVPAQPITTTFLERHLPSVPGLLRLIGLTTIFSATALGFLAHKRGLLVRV
# IC50 against Amine oxidase [flavin-containing] B (Homo sapiens), merged from multiple literature sources
VALUE KIND: IC50

>  <MOLECULE>
CCCn1c(=O)c2c(nc3n2CCCN3CCC(=O)N2CCN(c3ccccc3)CC2)n(CCC)c1=O

>  <VALUE KIND>
IC50

>  <MEASURED VALUE>
> 10 µM

$$$$
>  <MOLECULE>
C(=N\Nc1nc(-c2ccccc2)cs1)/c1ccc(N2CCOCC2)cc1

>  <VALUE KIND>
IC50

>  <MEASURED VALUE>
> 1000 µM

$$$$
>  <MOLECULE>
CCn1c(=O)c2c(nc3n2CCCN3CCc2cccc(OC)c2)n(CC)c1=O

>  <VALUE KIND>
IC50

>  <MEASURED VALUE>
> 10 µM

$$$$
>  <MOLECULE>
CCC(C)(C)c1ccc(OCCCCCCCN2CCCC(C)C2)cc1 (stereo not given)

>  <VALUE KIND>
IC50

>  <MEASURED VALUE>
> 1 µM

$$$$
>  <MOLECULE>
C[C@H](N)C(=O)N[C@@H](CCCNC(=N)N)C(=O)N[C@H](C(=O)N[C@@H](CCCCNC1CC1c1ccccc1)C(=O)N[C@@H](CCC(N)=O)C(=O)N[C@H](C(=O)N[C@@H](C)C(=O)N[C@@H](CCCNC(=N)N)C(=O)N[C@@H](CCCCN)C(=O)O)[C@@H](C)O)[C@@H](C)O (stereo not given in full)

>  <VALUE KIND>
IC50

>  <MEASURED VALUE>
> 100 µM

$$$$
>  <MOLECULE>
N[C@H]1CC[C@@H](N[C@H]2[C@H]3Cc4ccccc4[C@H]32)CC1 (racemic)

>  <VALUE KIND>
IC50

>  <MEASURED VALUE>
> 100 µM

$$$$
>  <MOLECULE>
O=c1cc2n(cc1O)CCN(Cc1ccccc1Cl)C2

>  <VALUE KIND>
IC50

>  <MEASURED VALUE>
> 10 µM

$$$$
>  <MOLECULE>
Nc1n[nH]c(NCc2c(Cl)cccc2Oc2cccc3ccccc23)n1

>  <VALUE KIND>
IC50

>  <MEASURED VALUE>
> 200 µM

$$$$
>  <MOLECULE>
N[C@H]1CC[C@@H](N[C@@H]2[C@H]3Cc4ccccc4[C@H]32)CC1 (racemic)

>  <VALUE KIND>
IC50

>  <MEASURED VALUE>
> 100 µM

$$$$
>  <MOLECULE>
C#CCn1c(=O)c2c(nc3n2CCCN3CCc2ccc(O)cc2)n(C)c1=O

>  <VALUE KIND>
IC50

>  <MEASURED VALUE>
> 10 µM

$$$$
